Data origin: patent US10428140B2

Molecular target: T1, human EphB4 (Homo sapiens, UniProt P54760)
T1 construct: a protein of the extracellular region of each human Eph receptor fused with the SEAP protein and the His tag; made in house; host or cells: Expi293F cells
T1 sequence (P54760 16-539 limits assumed): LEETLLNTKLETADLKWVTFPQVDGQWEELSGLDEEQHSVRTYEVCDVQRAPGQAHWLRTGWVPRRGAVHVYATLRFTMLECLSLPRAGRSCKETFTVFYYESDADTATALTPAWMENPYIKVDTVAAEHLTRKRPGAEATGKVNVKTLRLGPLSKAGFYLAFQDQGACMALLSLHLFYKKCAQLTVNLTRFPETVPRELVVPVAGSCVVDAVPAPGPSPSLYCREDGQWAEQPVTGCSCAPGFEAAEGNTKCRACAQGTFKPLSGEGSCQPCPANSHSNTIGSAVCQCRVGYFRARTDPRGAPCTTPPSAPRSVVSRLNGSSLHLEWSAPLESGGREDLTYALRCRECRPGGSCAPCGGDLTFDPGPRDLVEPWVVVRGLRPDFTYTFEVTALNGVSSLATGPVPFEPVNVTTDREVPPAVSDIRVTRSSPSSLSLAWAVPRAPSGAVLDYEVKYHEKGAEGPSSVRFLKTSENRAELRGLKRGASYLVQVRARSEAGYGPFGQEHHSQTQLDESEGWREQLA
Test: Selectivity ELISA of humanized antibodies for human Eph receptor
Format: binding
Conditions: coated protein 1 nM
measure: hEphB4-SEAP-: absorbance at 450 nm, percentage with respect to hEphA4-SEAP-His as 100% (%)

{"molecule": "153 (antibody, V domains shown, synthetic humanized antibody heavy chain variable region sequence; synthetic humanized antibody light chain variable region sequence) VH: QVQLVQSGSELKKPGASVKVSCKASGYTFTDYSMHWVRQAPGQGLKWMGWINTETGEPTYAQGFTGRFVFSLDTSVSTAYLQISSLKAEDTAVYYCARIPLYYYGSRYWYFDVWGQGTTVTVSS VL: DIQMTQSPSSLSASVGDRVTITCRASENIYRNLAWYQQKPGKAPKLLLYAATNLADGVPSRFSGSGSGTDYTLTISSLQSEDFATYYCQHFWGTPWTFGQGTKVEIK", "reading": 6.0}
{"molecule": "143 (antibody, V domains shown, synthetic humanized antibody heavy chain variable region sequence; synthetic humanized antibody light chain variable region sequence) VH: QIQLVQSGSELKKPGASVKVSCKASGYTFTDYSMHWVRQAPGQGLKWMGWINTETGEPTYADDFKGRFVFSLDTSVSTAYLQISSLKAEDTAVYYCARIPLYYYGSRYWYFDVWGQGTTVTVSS VL: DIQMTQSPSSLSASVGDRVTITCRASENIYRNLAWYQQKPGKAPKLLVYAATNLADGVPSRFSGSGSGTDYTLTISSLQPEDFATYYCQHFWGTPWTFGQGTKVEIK", "reading": 5.9}
{"molecule": "135 (antibody, V domains shown, synthetic humanized antibody heavy chain variable region sequence; synthetic humanized antibody light chain variable region sequence) VH: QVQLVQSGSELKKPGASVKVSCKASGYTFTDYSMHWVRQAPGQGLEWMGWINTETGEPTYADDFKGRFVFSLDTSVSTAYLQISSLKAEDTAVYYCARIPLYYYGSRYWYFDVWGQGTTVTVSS VL: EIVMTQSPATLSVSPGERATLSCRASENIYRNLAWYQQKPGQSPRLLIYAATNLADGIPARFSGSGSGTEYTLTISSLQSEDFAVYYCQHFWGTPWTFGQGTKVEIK", "reading": 5.1}
{"molecule": "73 (antibody, V domains shown, synthetic humanized antibody heavy chain variable region sequence; synthetic humanized antibody light chain variable region sequence) VH: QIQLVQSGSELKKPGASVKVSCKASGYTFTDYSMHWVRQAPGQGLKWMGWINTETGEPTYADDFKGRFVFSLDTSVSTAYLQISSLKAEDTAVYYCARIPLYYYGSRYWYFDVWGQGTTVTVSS VL: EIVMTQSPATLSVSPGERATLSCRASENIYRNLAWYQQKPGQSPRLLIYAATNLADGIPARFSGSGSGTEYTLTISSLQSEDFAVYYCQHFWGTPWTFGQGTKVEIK", "reading": 5.7}
